# credit: ChEMBL document CHEMBL1134844

# MEASUREMENT_DESCRIPTION: Plasma clearance in rat
# Type: ADME, organism-based
EXPERIMENTAL_ENDPOINT: clearance (mL/min/kg)
# number only, unit mL/min/kg dropped from output

Data point: CN(C)[C@H]1C[C@H](c2c[nH]c3ccc(CC4COC(=O)N4)cc32)C1 (stereo in doubt; 1) ; clearance = 40

----------
# MEASUREMENT_DESCRIPTION: Oral bioavailability in human
# Assay type: ADME, organism-based
# STATED_CONDITIONS: in vivo
The entries below come with measured bioavailability values attached.

Use the examples below as a reference point.
{"COMPOUND": "CNS(=O)(=O)Cc1ccc2[nH]cc(CCN(C)C)c2c1", "bioavailability": "14%"}
{"COMPOUND": "CN(C)CCc1c[nH]c2ccc(C[C@H]3COC(=O)N3)cc12", "bioavailability": "40%"}

Switching to the query record.
For record CN(C)[C@H]1C[C@H](c2c[nH]c3ccc(CC4COC(=O)N4)cc32)C1 (stereo in doubt; 1) the listed bioavailability is 41%
